target-or-system: HLA-A*24:02 molecule (product of HLA-A*24:02 gene) (human)
measurement-protocol: flow cytometry, acid-stripped C1R-A24 cells + β2m, peptide dilution series, 17A12 staining
property-name: Binding Experiment Data (log Kd)
Response body: numeric value in log Kd, unit text excluded.

Example entries begin here.
> print(dat)
                                     binder                     property.name  units.symbol  test.value
1  SVTNAVITV (modifications not checked) [peptide … (SEQ ID NO: 15)]  Binding Experiment Data (log Kd)        log Kd       -4.37
2  ITRARFEEL (modifications not checked) [peptide … (SEQ ID NO: 10)]  Binding Experiment Data (log Kd)        log Kd       -5.21
3  AMTKDNNLL (modifications not checked) [peptide … (SEQ ID NO: 9)]  Binding Experiment Data (log Kd)        log Kd       -5.49

Identify measured Binding Experiment Data (log Kd) corresponding to YGAAVQAAI (modifications not checked) [peptide … (SEQ ID NO: 7)]
-5.5

Identify measured Binding Experiment Data (log Kd) corresponding to FYPEEISSM (modifications not checked) [peptide … (SEQ ID NO: 3)]
-7.66

Identify measured Binding Experiment Data (log Kd) corresponding to TFDVSILTI (modifications not checked) [peptide … (SEQ ID NO: 2)]
-6.24

Identify measured Binding Experiment Data (log Kd) corresponding to VLVGGSTRI (modifications not checked) [peptide … (SEQ ID NO: 5)]
-6.17

Identify measured Binding Experiment Data (log Kd) corresponding to MVLTKMKEI (modifications not checked) [peptide … (SEQ ID NO: 6)]
-5.82
